# tested target: MRGPRX4 (Homo sapiens, UniProt Q96LA9)
# Sequence (Q96LA9 whole entry): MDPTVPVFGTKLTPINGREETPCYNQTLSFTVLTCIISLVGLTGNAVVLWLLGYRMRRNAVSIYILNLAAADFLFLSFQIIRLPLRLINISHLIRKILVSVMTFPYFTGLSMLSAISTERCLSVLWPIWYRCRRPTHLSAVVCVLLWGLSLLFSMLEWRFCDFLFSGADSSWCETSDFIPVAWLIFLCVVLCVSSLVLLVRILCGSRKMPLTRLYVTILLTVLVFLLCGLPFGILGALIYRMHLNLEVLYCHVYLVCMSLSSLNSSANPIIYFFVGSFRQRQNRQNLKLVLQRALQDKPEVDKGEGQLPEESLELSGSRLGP
# protocol description: MRGPRX4 activation, Fluo-8 Ca2+ FLIPR assay in HEK293T cells stably expressing MRGPRX4
# Assay type: cell-based
# details: MRGPRX4 activation, Ca2+ fluorescence; no activation in tested range reported as III; read-out: Activity (EC50 μM)
Provide the reported EC50 of each item.

Kindly give each listed record's EC50.
1. C[C@]12CC[C@@H](O)C[C@H]1CC[C@@H]1[C@@H]2C[C@H](O)[C@]2(C)[C@@H](CCCCCC(=O)O)CC[C@@H]12
2. CC[C@H]1[C@@H](O)[C@@H]2[C@H](CC[C@]3(C)[C@@H]([C@H](C)CCNC(=O)NS(=O)(=O)c4ccc(C(C)(CO)CO)cc4)CC[C@@H]23)[C@@]2(C)CCCC[C@@H]12
3. CC[C@H]1[C@@H](O)[C@@H]2[C@H](CC[C@]3(C)[C@@H]([C@H](C)CNC(=O)NS(=O)(=O)c4ccc(C(C)(C)CF)cc4)CC[C@@H]23)[C@@]2(C)CCCC[C@@H]12
4. CC[C@H]1[C@@H](O)[C@@H]2[C@H](CC[C@]3(C)[C@@H]([C@H](C)CCNC(=O)NS(=O)(=O)c4cc(F)cc(F)c4)CC[C@@H]23)[C@@]2(C)CCC(F)(F)C[C@@H]12
5. CC[C@H]1[C@@H](O)[C@@H]2[C@H](CC[C@]3(C)[C@@H]([C@H](C)CCNC(=O)NS(=O)(=O)c4ccc(C(C)(C)C)cc4)CC[C@@H]23)[C@@]2(C)CCCC[C@@H]12

Result:
["< 50 µM", "> 100 µM", "> 100 µM", "> 100 µM", "> 100 µM"]

---

Provide the reported MRGPRX4 activation, Average of each item.
# tested target: MRGPRX4 (Homo sapiens)
# protocol description: MRGPRX4 activation, Fluo-8 Ca2+ FLIPR assay in HEK293T cells stably expressing MRGPRX4
# Type: cell-based
# Parameters: key: fluorescence change dF/F0
# details: E3-9, Conc. (Log[M]) −4.0

Take a look at these entries with their results.
smiles data	measured
CC[C@H]1[C@@H](O)[C@@H]2[C@H](CC[C@]3(C)[C@@H]([C@H](C)CCNS(=O)(=O)C4CC4)CC[C@@H]23)[C@@]2(C)CCCC[C@@H]12	0.025
CC[C@H]1[C@@H](O)[C@@H]2[C@H](CC[C@]3(C)[C@@H]([C@H](C)COC(=O)NS(=O)(=O)c4ccc(C(C)(C)CF)cc4)CC[C@@H]23)[C@@]2(C)CCCC[C@@H]12	0.168
CC[C@H]1[C@@H](O)[C@@H]2[C@H](CC[C@]3(C)[C@@H]([C@H](C)CCNC(=O)NS(=O)(=O)c4cccs4)CC[C@@H]23)[C@@]2(C)CCC(F)(F)C[C@@H]12	−0.004

Kindly give each listed record's MRGPRX4 activation, Average.
1. CC[C@H]1[C@@H](O)[C@@H]2[C@H](CC[C@]3(C)[C@@H]([C@H](C)CCNC(=O)NS(=O)(=O)c4ccc(C(C)(C)CF)cc4)CC[C@@H]23)[C@@]2(C)CC[C@H](F)C[C@@H]12
2. CC[C@H]1[C@@H](O)[C@@H]2[C@H](CC[C@]3(C)[C@@H]([C@H](C)CCNC(=O)C(=O)NS(=O)(=O)c4ccc(C(C)(C)CF)cc4)CC[C@@H]23)[C@@]2(C)CCCC[C@@H]12

Result:
[0.019, 0.023]

---

# tested target: MRGPRX4 (Homo sapiens, UniProt Q96LA9)
# protocol description: MRGPRX4 activation, Fluo-8 Ca2+ FLIPR assay in HEK293T cells stably expressing MRGPRX4
# Type: cell-based
# details: Conc. (Log[M]) −9
Provide the reported MRGPRX4 activation, fluorescence change (dF/F0), Average of each item.
Numbers only.

Take a look at these entries with their results.
>>> print(df.to_string())
                                   molecule  measured
0  CC[C@H]1[C@@H](O)[C@@H]2[C@H](CC[C@]3(C)[C@@H]([C@H](C)CO)CC[C@@H]23)[C@@]2(C)CCCC[C@@H]12 [compound 73]    −0.014
1  C[C@H](CCC(=O)O)[C@H]1CC[C@H]2[C@@H]3CC[C@@H]4C[C@@H](O)CC[C@]4(C)[C@H]3C[C@@H](O)[C@]12C [RC-6]    −0.008

Okay, now this molecule:
Ask: Any idea what its MRGPRX4 activation, fluorescence change (dF/F0), Average is? The molecule is C[C@H](CC/C=C/C(=O)O)[C@H]1CC[C@H]2[C@@H]3CC[C@@H]4C[C@H](O)CC[C@]4(C)[C@H]3C[C@H](O)[C@]12C [RC-7]
Result: −0.005

---

# tested target: MRGPRX4 (Homo sapiens, UniProt Q96LA9)
# protocol description: MRGPRX4 activation, Fluo-8 Ca2+ FLIPR assay in HEK293T cells stably expressing MRGPRX4
# Type: cell-based
# Parameters: key: fluorescence change dF/F0
# details: E3-9, Conc. (Log[M]) −5.9
Provide the reported MRGPRX4 activation, Average of each item.
Numbers only.

Take a look at these entries with their results.
molecule	readout type	measured
CC[C@H]1[C@@H](O)[C@@H]2[C@H](CC[C@]3(C)[C@@H]([C@H](C)CCNC(=O)NS(=O)(=O)c4cc(F)cc(F)c4)CC[C@@H]23)[C@@]2(C)CC[C@H](F)C[C@@H]12 [9-3]	MRGPRX4 activation, Average	0.019
CC[C@H]1[C@@H](O)[C@H]2[C@@H]3CC[C@](C)([C@H](C)CCNC(=O)NS(=O)(=O)C[C@]45CCC(CC4=O)C5(C)C)[C@H]3CC[C@@H]2[C@@]2(C)CC[C@H](F)C[C@@H]12 [9-5]	MRGPRX4 activation, Average	0.018
CC[C@H]1[C@@H](O)[C@@H]2[C@H](CC[C@]3(C)[C@@H]([C@H](C)CCN=C=S)CC[C@@H]23)[C@@]2(C)CCC(F)(F)C[C@@H]12 [11-2]	MRGPRX4 activation, Average	0.020
CCOC(=O)C(=O)NCC[C@@H](C)[C@H]1CC[C@H]2[C@@H]3[C@H](O)[C@H](CC)[C@@H]4CCCC[C@]4(C)[C@H]3CC[C@]12C [compound 53]	MRGPRX4 activation, Average	0.011

Okay, now this molecule:
Ask: Any idea what its MRGPRX4 activation, Average is? The molecule is CC[C@H]1[C@@H](O)[C@@H]2[C@H](CC[C@]3(C)[C@@H]([C@H](C)CCNC(=O)NS(=O)(=O)c4ccc(C(C)(C)CF)cc4)CC[C@@H]23)[C@@]2(C)CC[C@H](F)C[C@@H]12 [9-1]
Result: 0.014

---

# tested target: human FXR (NR1H4) (Homo sapiens, UniProt Q96RI1)
# Sequence (Q96RI1 1-476 isoform Q96RI1-1): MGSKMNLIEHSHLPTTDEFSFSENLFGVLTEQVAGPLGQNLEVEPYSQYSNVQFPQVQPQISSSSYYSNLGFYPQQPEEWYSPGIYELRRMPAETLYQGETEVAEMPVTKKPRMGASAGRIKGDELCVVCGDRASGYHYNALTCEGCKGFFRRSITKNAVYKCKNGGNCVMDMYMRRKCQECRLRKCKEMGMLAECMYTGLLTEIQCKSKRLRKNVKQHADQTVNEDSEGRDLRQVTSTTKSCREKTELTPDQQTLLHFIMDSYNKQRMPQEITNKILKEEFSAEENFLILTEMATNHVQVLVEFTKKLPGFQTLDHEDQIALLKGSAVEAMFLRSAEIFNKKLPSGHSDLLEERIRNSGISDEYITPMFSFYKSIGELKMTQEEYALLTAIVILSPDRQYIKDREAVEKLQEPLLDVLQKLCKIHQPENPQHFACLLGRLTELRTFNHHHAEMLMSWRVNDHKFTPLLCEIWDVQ
# protocol description: Human FXR (NR1H4) agonist assessment, FXRE-NanoLuc reporter in HEK293T cells
# Type: cell-based
# details: FXR activation, HEK293T FXRE-NanoLuc reporter, 24 hr
readout type: Efficacy (maximum measured induction of NanoLuc, normalized to CDCA set as 100%)

Take a look at these entries with their results.
smiles data	measured
CC[C@H]1[C@@H](O)[C@@H]2[C@H](CC[C@]3(C)[C@@H]([C@H](C)CCNC(=O)NS(=O)(=O)N(C)C)CC[C@@H]23)[C@@]2(C)CCCC[C@@H]12	C (100%<efficacy <=300%)
CC[C@H]1[C@@H](O)[C@@H]2[C@H](CC[C@]3(C)[C@@H]([C@H](C)CCNC(=N)N)CC[C@@H]23)[C@@]2(C)CCCC[C@@H]12	A (efficacy >400%)
CC[C@H]1[C@@H](O)[C@@H]2[C@H](CC[C@]3(C)[C@@H]([C@H](C)CO)CC[C@@H]23)[C@@]2(C)CCCC[C@@H]12	A (efficacy >400%)
CC[C@H]1[C@@H](O)[C@@H]2[C@H](CC[C@]3(C)[C@@H]([C@H](C)CCNC(=O)NS(=O)(=O)c4ccc(C(C)(C)CF)cc4)CC[C@@H]23)[C@@]2(C)CCC(F)(F)C[C@@H]12	B (300%<efficacy <=400%)
CC[C@H]1[C@@H](O)[C@@H]2[C@H](CC[C@]3(C)[C@@H]([C@H](C)CCNC(=O)NS(=O)(=O)c4cccs4)CC[C@@H]23)[C@@]2(C)CCC(F)(F)C[C@@H]12	C (100%<efficacy <=300%)

Kindly give each listed record's Efficacy (maximum measured induction of NanoLuc, normalized to CDCA set as 100%).
1. CC[C@H]1[C@@H](O)[C@@H]2[C@H](CC[C@]3(C)[C@@H]([C@H](C)CCNS(=O)(=O)c4cc(F)ccc4F)CC[C@@H]23)[C@@]2(C)CCCC[C@@H]12
2. CC[C@H]1[C@@H](O)[C@@H]2[C@H](CC[C@]3(C)[C@@H]([C@H](C)CCNC(=O)C(=O)NS(=O)(=O)c4cc(F)cc(F)c4)CC[C@@H]23)[C@@]2(C)CCCC[C@@H]12
3. CC[C@H]1[C@@H](O)[C@@H]2[C@H](CC[C@]3(C)[C@@H]([C@H](C)CC(=O)NS(=O)(=O)C(C)(C)C)CC[C@@H]23)[C@@]2(C)CCCC[C@@H]12
4. CC[C@H]1[C@@H](O)[C@@H]2[C@H](CC[C@]3(C)[C@@H]([C@H](C)CCNC(=O)NS(=O)(=O)c4cc(F)ccc4F)CC[C@@H]23)[C@@]2(C)CCC(F)(F)C[C@@H]12
5. CC[C@H]1[C@@H](O)[C@@H]2[C@H](CC[C@]3(C)[C@@H]([C@H](C)CCC(=O)OC)CC[C@@H]23)[C@@]2(C)CCCC[C@@H]12
6. CC[C@H]1[C@@H](O)[C@@H]2[C@H](CC[C@]3(C)[C@@H]([C@H](C)CCN)CC[C@@H]23)[C@@]2(C)CCCC[C@@H]12

Result:
1. C (100%<efficacy <=300%)
2. B (300%<efficacy <=400%)
3. B (300%<efficacy <=400%)
4. C (100%<efficacy <=300%)
5. C (100%<efficacy <=300%)
6. B (300%<efficacy <=400%)
